Measured pEC50 values are reported for all entries that follow.
Target: Nuclear receptor subfamily 1 group I member 2 (Homo sapiens)
Test: Protection of human pregnane X receptor against proteolytic digestion in presence of trypsin
pEC50: −log10 of the molar value.
Value Type: pEC50

>>> observed("O=S(=O)(Nc1ccc2c(c1)ncn2Cc1ccccc1)c1ccccc1Cl")
6.80
>>> observed("Cc1c(C)c(C)c(S(=O)(=O)Nc2ccc3c(c2)ncn3Cc2ccccc2)c(C)c1C")
8.09
>>> observed("Cc1cc(C)c(S(=O)(=O)Nc2ccc3c(c2)ncn3Cc2ccccc2)c(C)c1")
8.09
>>> observed("CC(c1ccccc1)n1cnc2cc(NS(=O)(=O)Cc3ccccc3Cl)ccc21 (racemic)")
6.09

###

Measured Ratio values are reported for all entries that follow.
Test system: Hepatocyte
Assay: Induction of […] mRNA expression in human hepatocyte FT272 at 1 uM after 24 hrs by RT-PCR relative to control
Assay type: functional
Value Type: Ratio

>>> observed("O=S(=O)(Nc1ccc2c(c1)ncn2Cc1ccccc1)c1ccccc1Cl")
11.83
>>> observed("Cc1cc(C)c(S(=O)(=O)Nc2ccc3c(c2)ncn3Cc2ccccc2)c(C)c1")
7.55
>>> observed("CCOP(=O)(OCC)C(=Cc1cc(C(C)(C)C)c(O)c(C(C)(C)C)c1)P(=O)(OCC)OCC")
3.91
>>> observed("Cc1c(C)c(C)c(S(=O)(=O)Nc2ccc3c(c2)ncn3Cc2ccccc2)c(C)c1C")
11.41

###

Test system: Hepatocyte
Experiment: Induction of CYP3A4 mRNA expression in human hepatocyte FT272 at 1 uM after 24 hrs by RT-PCR relative to control
Assay type: functional
Value Type: Ratio

>>> observed("Cc1cc(C)c(S(=O)(=O)Nc2ccc3c(c2)ncn3Cc2ccccc2)c(C)c1")
31.68
>>> observed("CCOP(=O)(OCC)C(=Cc1cc(C(C)(C)C)c(O)c(C(C)(C)C)c1)P(=O)(OCC)OCC")
24.01
>>> observed("Cc1c(C)c(C)c(S(=O)(=O)Nc2ccc3c(c2)ncn3Cc2ccccc2)c(C)c1C")
32.59
>>> observed("O=S(=O)(Nc1ccc2c(c1)ncn2Cc1ccccc1)c1ccccc1Cl")
36.06

###

Biological target: Nuclear receptor subfamily 1 group I member 2 (Homo sapiens, UniProt O75469)
Sequence (O75469 whole entry): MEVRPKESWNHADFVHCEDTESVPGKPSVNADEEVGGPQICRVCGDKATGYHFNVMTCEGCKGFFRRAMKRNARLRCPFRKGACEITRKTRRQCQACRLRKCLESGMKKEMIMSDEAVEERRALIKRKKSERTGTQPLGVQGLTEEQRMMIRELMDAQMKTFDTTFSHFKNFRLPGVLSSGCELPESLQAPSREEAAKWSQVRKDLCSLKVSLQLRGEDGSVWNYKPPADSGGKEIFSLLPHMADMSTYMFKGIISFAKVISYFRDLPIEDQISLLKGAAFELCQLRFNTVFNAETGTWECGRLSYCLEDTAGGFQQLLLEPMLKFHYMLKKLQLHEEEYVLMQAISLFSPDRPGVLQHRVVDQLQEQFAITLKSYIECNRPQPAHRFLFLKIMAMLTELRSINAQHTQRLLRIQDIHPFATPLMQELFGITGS
Assay: Agonist activity at human pregnane X receptor expressed in HGPXR reporter cells
Format: functional, cell-based
Value Type: log10 of EC50 (log10 of the value in nM)

>>> observed("CCCc1ccc(S(=O)(=O)Nc2ccc3c(c2)ncn3Cc2ccccc2)cc1")
1.72
>>> observed("O=S(=O)(Nc1ccc2c(c1)ncn2Cc1ccccc1)c1ccc(-c2ccccc2)cc1")
2.59
>>> observed("O=S(=O)(Nc1ccc2c(c1)ncn2Cc1ccccc1)c1ccccc1Br")
1.30
>>> observed("CC(C)(C)c1ccc(S(=O)(=O)Nc2ccc3c(c2)ncn3Cc2ccccc2)cc1")
1.62
>>> observed("O=S(=O)(Nc1ccc2c(c1)ncn2Cc1ccccc1)c1ccc2ccccc2c1")
1.71
>>> observed("O=S(=O)(Nc1ccc2c(c1)ncn2-c1ccc2ccccc2c1)c1ccccc1Cl")
2.59
>>> observed("Cc1cc(C)c(S(=O)(=O)Nc2ccc3c(c2)ncn3Cc2ccccc2)c(C)c1")
0.18
>>> observed("O=[N+]([O-])c1ccccc1S(=O)(=O)Nc1ccc2c(c1)ncn2Cc1ccccc1")
2.43
>>> observed("Cc1ccccc1S(=O)(=O)Nc1ccc2c(c1)ncn2Cc1ccccc1")
1.65
>>> observed("O=C(Cc1cccc2ccccc12)Nc1ccc2c(c1)ncn2Cc1ccccc1")
2.34
>>> observed("O=S(=O)(Nc1ccc2c(c1)ncn2Cc1ccccc1)c1ccccc1F")
2.00
>>> observed("CCCCCCn1cnc2cc(NS(=O)(=O)c3ccccc3Cl)ccc21")
1.74
>>> observed("O=S(=O)(Cc1ccccc1Cl)Nc1ccc2ncn(Cc3ccccc3)c2c1")
2.58
>>> observed("Cc1cc(C)cc(S(=O)(=O)Nc2ccc3c(c2)ncn3Cc2ccccc2)c1")
1.52
>>> observed("O=[N+]([O-])c1ccccc1CS(=O)(=O)Nc1ccc2c(c1)ncn2Cc1ccccc1")
2.63
>>> observed("O=C(Nc1ccc2c(c1)ncn2Cc1ccccc1)Nc1ccccc1Cl")
3.17
>>> observed("O=S(=O)(Nc1ccc2ncn(Cc3ccccc3)c2c1)c1ccccc1Cl")
2.53
>>> observed("CCCCCCn1cnc2cc(NS(=O)(=O)c3c(C)c(C)c(C)c(C)c3C)ccc21")
1.11
>>> observed("O=S(=O)(Nc1ccc2c(c1)ncn2Cc1ccccc1)c1ccccc1Cl")
1.36
>>> observed("O=C(Cc1ccccc1Cl)Nc1ccc2c(c1)ncn2Cc1ccccc1")
2.71
>>> observed("O=S(=O)(Cc1ccccc1Cl)Nc1ccc2c(c1)ncn2Cc1ccccc1")
2.25
>>> observed("O=S(=O)(Cc1ccccc1Cl)Nc1ccc2c(ccn2Cc2ccccc2)c1")
2.29
>>> observed("CC(c1ccccc1)n1cnc2cc(NS(=O)(=O)Cc3ccccc3Cl)ccc21 (racemic)")
1.69
>>> observed("Cc1c(C)c(C)c(S(=O)(=O)Nc2ccc3c(c2)ncn3Cc2ccccc2)c(C)c1C")
-0.15
>>> observed("O=[N+]([O-])c1ccc(S(=O)(=O)Nc2ccc3c(c2)ncn3Cc2ccccc2)cc1")
2.53
>>> observed("O=S(=O)(Nc1ccc2c(c1)ncn2Cc1ccccc1)c1cccc2ccccc12")
1.30
>>> observed("Cc1c(C)c(C)c(S(=O)(=O)Nc2ccc3c(c2)ncn3-c2ccc3ccccc3c2)c(C)c1C")
1.74
